Consider the following molecules and their measured IC50 readings.
Assayed target: APOL1 (Homo sapiens)
Procedure text: MultiTox-Fluor Multiplex Cytotoxicity Assay, tet-inducible APOL1 T-REx-HEK293 cells (G0, G1 or G2 clone not specified for Table 20)
Condition info: tet-induced, 24 hours with compound, ratio of dead to live cells, read-out: IP50 (i.e., IC50 for cell proliferation)

The examples below pair each entry with its known result.
Molecule: C[C@H]1C[C@@]2(CCN1Cc1cnc(N)nc1)OCCc1ccc(Cl)cc12
IC50: ≤ 50 nM

Molecule: CCn1cc(CN2CC[C@]3(C[C@@H]2C)OCCc2ccc(Cl)cc23)nn1
IC50: 50 to 500 nM

Molecule: CNC(=O)C1OC2(CCN(Cc3cnn(-c4ccccc4)c3)CC2)c2cc(C#N)ccc21 (stereo not shown)
IC50: 50 to 500 nM

Molecule: CNC(=O)C1OC2(CCN(Cc3cnn(-c4ccccc4)c3C)CC2)c2cc(Cl)ccc21 (stereo not shown)
IC50: ≥ 500 nM

Fill in: IC50 of Cn1cc(CN2CCC3(CC2)OC(C(N)=O)c2ccc(Cl)cc23)cn1 (stereo not shown) is ___
≤ 50 nM

Name the recorded IC50 for Cc1ccc2c(c1)C1(CCN(Cc3cnn(-c4ccccc4)c3)CC1)OC2C(N)=O (stereo not shown) .
≤ 50 nM

Which value of IC50 has been reported for Cc1cc(CN2CCC3(CC2)OC(C(N)=O)c2ccc(Cl)cc23)nn1C (stereo not shown) in the records?
≥ 500 nM

Name the reported IC50 value associated with the molecule C[C@H]1CC2(CCN1Cc1cnn(CCS(C)(=O)=O)c1)CC(O)c1ccc(Cl)cc12 (single isomer, unassigned) [Compound 307]
≤ 50 nM

Requested read-out: IC50. Entry: Cc1ncc(CN2CCC3(CC2)OC(C(N)=O)c2ccc(Cl)cc23)o1 (stereo not shown)
50 to 500 nM

So what does the record say about IC50 for `C[C@H]1C[C@@]2(CCN1Cc1cn(CC3(CC(N)=O)CC3)nn1)OCCc1ccc(Cl)cc12` ?
≤ 50 nM

Quick one: IC50 for `C[C@H]1C[C@@]2(CCN1Cc1cn(CCCO)nn1)OCCc1ccc(Cl)cc12` ?
≤ 50 nM

Record request: IC50 value, item Cc1noc2ncc(CN3CCC4(CC3)OC(C(N)=O)c3ccc(Cl)cc34)cc12 (stereo not shown)
50 to 500 nM

Returns the measured IC50 for the input molecule. Input: `C[C@H]1C[C@@]2(CCN1Cc1ccc3c(c1)n(C)c(=O)n3C)OCCc1ccc(Cl)cc12`
≤ 50 nM

What measured IC50 goes with `C[C@H]1C[C@@]2(CCN1Cc1cn(CCO)nn1)OCCc1ccc(Cl)cc12` ?
≤ 50 nM

Which measured IC50 value corresponds to C[C@H]1C[C@@]2(CCN1Cc1cn(C3CC(=O)N(C)C3)nn1)OCCc1ccc(Cl)cc12 (stereo partly shown) ?
≤ 50 nM

What value of IC50 has been recorded for this entry: `CS(=O)(=O)CCn1cc(CN2CCC3(CC2)C(=O)Nc2ccc(CC(F)F)cc23)cn1`
≥ 500 nM

Attribution: patent US20250195483A1
